Target: human GCGR (Homo sapiens (Human), UniProt P47871)
Sequence (P47871 26-477): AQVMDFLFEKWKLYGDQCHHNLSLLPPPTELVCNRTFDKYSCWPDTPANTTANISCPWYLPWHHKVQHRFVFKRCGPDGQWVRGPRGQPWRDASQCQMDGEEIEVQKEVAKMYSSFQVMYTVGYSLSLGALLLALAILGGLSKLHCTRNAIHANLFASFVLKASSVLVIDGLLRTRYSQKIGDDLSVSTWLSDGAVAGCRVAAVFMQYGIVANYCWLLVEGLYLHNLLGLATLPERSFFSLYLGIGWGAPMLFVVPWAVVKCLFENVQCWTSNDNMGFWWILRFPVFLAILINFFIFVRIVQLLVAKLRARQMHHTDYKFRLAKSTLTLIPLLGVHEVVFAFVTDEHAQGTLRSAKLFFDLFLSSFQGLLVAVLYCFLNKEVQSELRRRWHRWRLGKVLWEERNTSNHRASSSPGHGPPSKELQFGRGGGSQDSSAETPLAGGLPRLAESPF
Assay: Cellular functional assay, cAMP readout (glucagon-stimulated cAMP in HEK293 cells expressing human GCGR)
Type: cell-based
Settings: hGluc-1 HEK cells, LANCE TR-FRET, IC50 converted to Ki, average if tested more than once
pKi: −log10 of the molar value.
measuredAttribute: pKi

# example entries with known answers
>  <itemSmiles>
O=C(O)CCNC(=O)c1ccc(-c2cc(C(F)(F)F)ccc2CNc2ccc(-c3ccc(Cl)cc3Cl)c(C(F)(F)F)c2)cn1

>  <measuredAttribute>
pKi

>  <recordedValue>
7.07

$$$$
>  <itemSmiles>
Cc1cc(C(F)(F)F)ccc1-c1ccc(NCc2c(-c3ccccc3)cc(C(F)(F)F)cc2-c2ccc(C(=O)NCCC(=O)O)nc2)cc1Cl

>  <measuredAttribute>
pKi

>  <recordedValue>
7.71

$$$$
>  <itemSmiles>
Cc1cc(C(F)(F)F)ccc1-c1ccc(NCc2c(-c3ccc(C(=O)NCCC(=O)O)nc3)cc(C(F)(F)F)cc2C2CC2)cc1Cl

>  <measuredAttribute>
pKi

>  <recordedValue>
8.28

$$$$
>  <itemSmiles>
N#Cc1cc(NCc2cc(F)c(F)cc2-c2ccc(C(=O)NCCC(=O)O)nc2)ccc1-c1ccc(Cl)cc1Cl

>  <measuredAttribute>
pKi

>  <recordedValue>
7.13

$$$$

[P] O=C(O)CCNC(=O)c1ccc(-c2cc(F)c(F)cc2CNc2ccc(-c3cccc(C(F)(F)F)c3Cl)c(Cl)c2)cn1
[Q] O=C(O)CCNC(=O)c1ccc(-c2cc(F)ccc2CNc2ccc(-c3ccc(Cl)c(Cl)c3)c(F)c2)cn1
Prompt: Between these two entries, P and Q , state which has the higher pKi. Lab note: record the label of whichever item you select.
Completion: P
(P: 7.26, Q: 6.31)

---

Target: human glucagon receptor (GCGR) (Homo sapiens (Human), UniProt P47871)
Assay: Inhibition of 125I-glucagon binding to membranes from HEK293 cells expressing the human glucagon receptor
Details: membranes of hGluc-1 HEK cells, 125I-glucagon 0.3 nM, 2 hours room temperature; IC50 converted to Ki; average if tested more than once
pKi: −log10 of the molar value.
measuredAttribute: pKi

>  <compound>
Cc1cc(Cl)ccc1-c1ccc(NCc2ccc(C(F)(F)F)cc2-c2ccc(C(=O)NCCC(=O)O)nc2)cc1Cl [Compound 34]

>  <recordedValue>
7.62

$$$$

[P] O=C(O)CCNC(=O)c1ccc(-c2cc(C(F)(F)F)ccc2CNc2ccc(-c3ccc(Cl)cc3F)c(Cl)c2)cn1 [Compound 37]
[Q] CC(=O)c1ccc(-c2ccc(NCc3ccc(Cl)cc3-c3ccc(C(=O)NCCC(=O)O)nc3)cc2)cc1 [Compound 156]
Prompt: Between these two entries, P and Q , state which has the higher pKi. Lab note: record the label of whichever item you select.
Completion: P

---

Target: human GCGR (Homo sapiens (Human), UniProt P47871)
Experiment: Cellular functional assay, cAMP readout (glucagon-stimulated cAMP in HEK293 cells expressing human GCGR)
Type: cell-based
Conditions: hGluc-1 HEK cells, LANCE TR-FRET, IC50 converted to Ki, average if tested more than once
measuredAttribute: Ki (nM)

[P] O=C(O)CCNC(=O)c1ccc(-c2cc(C(F)(F)F)ccc2CNc2ccc(-c3ccc(F)c(Cl)c3)c(Cl)c2)cn1
[Q] COc1cc(C(F)(F)F)cc(-c2ccc(C(=O)NCCC(=O)O)nc2)c1CNc1cc(Cl)c(-c2ccc(Cl)cc2)c(Cl)c1
[R] O=C(O)CCNC(=O)c1ccc(-c2cc(C(F)(F)F)ccc2CNc2ccc(-c3ccc(F)cc3Cl)cc2)cn1
[S] Cc1cc(Cl)ccc1-c1ccc(NCc2ccc(C(F)(F)F)cc2-c2ccc(C(=O)NCCC(=O)O)nc2)cc1Cl
[T] O=C(O)CCNC(=O)c1ccc(-c2cc(Cl)ccc2CNc2ccc(-c3ccc(Cl)cc3Cl)cc2F)cn1
Prompt: Order the above molecules by increasing Ki. Show the ranking through the labels, in the order asked for.
Completion: S, P, R, T, Q
(S: 17.1 nM, P: 35 nM, R: 130 nM, T: 265 nM, Q: 650 nM)
